B1: KRT34 (parent)
chain: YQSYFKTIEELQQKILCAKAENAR

Variants of: B1
Experiment: protein stability index of a GFP-peptide fusion (GPS, HEK-293T) (PSI 1-6); higher = more stable;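 note: lentivirally expressed fusions sorted by FACS into six bins by GFP to DsRed ratio, PSI derived from sequencing read proportions per bin multiplied by bin number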
Settings: c terminus: a fixed tail appended
The entries below are paired with their reported protein stability index.
Form field (numeric): enter value without unit.

>  <changes>
K6T

>  <reported-measurement>
2.67

$$$$

Which protein stability index reading was recorded for the variant L16S ?
1.97

Which protein stability index reading was recorded for the variant K6D ?
2.01

Which protein stability index reading was recorded for the variant S3M ?
1.77

Which protein stability index reading was recorded for the variant L16C ?
1.84

Which protein stability index reading was recorded for the variant C17A ?
2.56

Which protein stability index reading was recorded for the variant Q12E ?
1.48

Which protein stability index reading was recorded for the variant I8P ?
2.24

Which protein stability index reading was recorded for the variant Y4C ?
1.73

Which protein stability index reading was recorded for the variant Q13V ?
1.96

Which protein stability index reading was recorded for the variant I15W ?
2.2
